// TGI lookup, one value per entry
system: SK-MEL-2 melanoma; test: NCI tumour cell line growth inhibition, 48 h

>  <Compound>
CC(=O)Nc1ccc(S(=O)(=O)N/N=C/c2cc(I)cc([N+](=O)[O-])c2O)cc1

>  <TGI>
> 100 µM

$$$$
>  <Compound>
CN(CC(=O)O)S(=O)(=O)c1ccc(Cl)cc1

>  <TGI>
> 100 µM

$$$$
>  <Compound>
CC1(C)OC[C@@H]([C@H](C=O)OCc2ccccc2)O1

>  <TGI>
> 100 µM

$$$$

* * *

// TGI lookup, one value per entry
tested on: COLO 205 colon; assay: NCI tumour cell line growth inhibition, 48 h
Reported Metric: TGI

>  <Molecule>
N#Cc1nc(N)c(C#N)[nH]1

>  <Reported Metric>
TGI

>  <Reported>
> 100 µM

$$$$
>  <Molecule>
Fc1ccc(-c2nn3c(COc4ccccc4Cl)nnc3s2)cc1Oc1ccccc1

>  <Reported Metric>
TGI

>  <Reported>
> 100 µM

$$$$
>  <Molecule>
Cn1c(=O)oc2cc(C(=O)CN3CCN(Cc4ccc5c(c4)OCO5)CC3)c(Cl)cc21

>  <Reported Metric>
TGI

>  <Reported>
> 100 µM

$$$$
>  <Molecule>
Cc1c(/C=N/NC(=S)Nc2ccc([N+](=O)[O-])cc2)c(=O)n(-c2ccccc2)n1C

>  <Reported Metric>
TGI

>  <Reported>
> 100 µM

$$$$
>  <Molecule>
CC(=O)OC12c3ccccc3C(c3ccccc31)C1C(=O)N(Nc3ccccc3)C(=O)C12 (stereo unspecified)

>  <Reported Metric>
TGI

>  <Reported>
> 100 µM

$$$$
>  <Molecule>
CC(=O)N[C@@H](Cc1ccc(OP(=O)(O)O)cc1)C(=O)N[C@H]1CCC(=O)N2CCC[C@@H](C(=O)NCc3cccc4ccccc34)N2C1=O

>  <Reported Metric>
TGI

>  <Reported>
> 25 µM

$$$$

* * *

tested on: IGROV1 ovarian; assay: NCI tumour cell line growth inhibition, 48 h
Reported Metric: TGI

>  <Molecule>
CCOC(=O)c1ccc(N(C)Cc2cnc3nc(N)nc(N)c3n2)cc1

>  <Study Target>
IGROV1 ovarian

>  <Reported>
86 µM

$$$$
>  <Molecule>
CNc1cccc(-c2cc(=O)c3cc4c(cc3[nH]2)OCO4)c1

>  <Study Target>
IGROV1 ovarian

>  <Reported>
> 100 µM

$$$$
>  <Molecule>
Cc1ccc(S(=O)(=O)NN=C2C(C)CC(C(C)(C)C)CC2C)cc1 (stereo not drawn)

>  <Study Target>
IGROV1 ovarian

>  <Reported>
> 100 µM

$$$$
>  <Molecule>
C=CC[C@H](O)[C@@](NC(=O)OCc1ccccc1)(Sc1ccc(C)cc1)C(F)(F)F

>  <Study Target>
IGROV1 ovarian

>  <Reported>
24 µM

$$$$
>  <Molecule>
CC1(C)CC(=O)c2c(nc3c(ccc4ccccc43)c2-c2ccc(NC(=O)CCCCCCCCC(=O)Nc3ccc(-c4c5c(nc6c4ccc4ccccc46)CC(C)(C)CC5=O)cc3)cc2)C1

>  <Study Target>
IGROV1 ovarian

>  <Reported>
> 100 µM

$$$$
>  <Molecule>
CC1OC(n2ccc3ccc([N+](=O)[O-])cc32)C(O)C(O)C1O (stereo not drawn)

>  <Study Target>
IGROV1 ovarian

>  <Reported>
> 100 µM

$$$$
>  <Molecule>
CNC(=O)N(CCCC(NC(C)=O)C(=O)NCc1ccccc1)Cc1ccccc1 (stereo not drawn)

>  <Study Target>
IGROV1 ovarian

>  <Reported>
> 100 µM

$$$$
>  <Molecule>
CC(Cc1ccc(O)cn1)(NC(=O)c1ccccc1)C(=O)O (stereo not drawn)

>  <Study Target>
IGROV1 ovarian

>  <Reported>
> 100 µM

$$$$

* * *

test system: SF-295 CNS; assay: NCI tumour cell line growth inhibition, 48 h

>  <Compound>
COc1ccc(-c2nc(Nc3ccc(F)cc3)nc(Nc3ccc4c(c3)nc(C)n4Cc3ccccc3)n2)cc1

>  <TGI>
> 100 µM

$$$$
>  <Compound>
CCCCCCCCOP(=O)(O)OP(=O)(O)OCC1OC(n2ccc(N)nc2=O)C(O)C1O (stereo not drawn)

>  <TGI>
> 100 µM

$$$$
>  <Compound>
COc1ccc(-c2nc(SCC(=O)N/N=C/c3ccc([N+](=O)[O-])cc3)[nH]c2-c2ccc(OC)cc2)cc1

>  <TGI>
> 69 µM

$$$$

* * *

tested on: HL-60(TB) leukemia; assay: NCI tumour cell line growth inhibition, 48 h

>  <Compound>
CC(C)(C)OC(=O)CCC1NC(=O)[C@@H]2Cc3c([nH]c4ccccc34)C(c3ccccc3)N2C1=O (stereo partly drawn)

>  <Qual>
=

>  <TGI / µM>
51.2

$$$$
>  <Compound>
O=C(Cc1c(C(=O)Nc2ccccc2)sc(C(=O)Nc2ccccc2)c1CC(=O)Nc1ccccc1)Nc1ccccc1

>  <Qual>
>

>  <TGI / µM>
100

$$$$
>  <Compound>
COc1ccc(C(=O)/C=C/c2ccc(OCC(=O)N3CCN(c4ccccc4)CC3)cc2)cc1OC

>  <Qual>
>

>  <TGI / µM>
10

$$$$
>  <Compound>
ClCc1nnc2n1-c1ccc(Cl)cc1SC2

>  <Qual>
=

>  <TGI / µM>
3.51

$$$$
>  <Compound>
COc1ccc(/C=C/C(=O)c2ccc(B(O)O)cc2)cc1O

>  <Qual>
=

>  <TGI / µM>
44.2

$$$$
>  <Compound>
Cc1c(/C=N/NC(=S)Nc2ccc([N+](=O)[O-])cc2)c(=O)n(-c2ccccc2)n1C

>  <Qual>
>

>  <TGI / µM>
100

$$$$
>  <Compound>
O=C(O)c1ccc(NCn2nc(-c3ccccc3O)oc2=S)cc1O

>  <Qual>
>

>  <TGI / µM>
100

$$$$
>  <Compound>
Cc1ccc([N+](=O)[O-])cc1S(=O)(=O)Nc1ccc(C(=O)/C=C/c2ccccc2)cc1

>  <Qual>
=

>  <TGI / µM>
65.1

$$$$

* * *

tested on: SK-MEL-2 melanoma; assay: NCI tumour cell line growth inhibition, 48 h
Listed compounds paired with reported TGI

>  <Compound>
C#CCOCCCC(=O)O

>  <TGI>
> 100 µM

$$$$
>  <Compound>
O=C(CSc1nc(-c2ccccc2)c(-c2ccccc2)[nH]1)N/N=C/c1ccc([N+](=O)[O-])cc1

>  <TGI>
26.9 µM

$$$$
>  <Compound>
O=c1n(Cc2ccccc2)c2ccccc2n1CC1CS1 (stereo not drawn)

>  <TGI>
> 100 µM

$$$$

* * *

# TGI per entry
system: SR leukemia; experiment: NCI tumour cell line growth inhibition, 48 h
Reported Metric: TGI

>  <Molecule>
Cc1c(/C=N/NC(=S)Nc2ccc([N+](=O)[O-])cc2)c(=O)n(-c2ccccc2)n1C

>  <Reported>
> 100 µM

$$$$
>  <Molecule>
O=c1n(Cc2ccccc2)c2ccccc2n1CC1CS1 (stereo not drawn)

>  <Reported>
> 100 µM

$$$$
>  <Molecule>
COc1ccc2c(c1)C(=O)/C(=C/c1ccccc1)C2

>  <Reported>
> 100 µM

$$$$

* * *

system: ACHN renal; experiment: NCI tumour cell line growth inhibition, 48 h

>  <Compound>
CCOC(=O)C(CC(C)C)NC(=O)C(N)Cc1ccc(N(CCCl)CCCl)cc1 (stereo not given)

>  <Output Unit>
µM

>  <Qual>
=

>  <TGI>
1.81

$$$$
>  <Compound>
Cc1cc(C)c(S(=O)(=O)N(CCCCCCN)OCCCON(CCCCCCN)S(=O)(=O)c2c(C)cc(C)cc2C)c(C)c1

>  <Output Unit>
µM

>  <Qual>
=

>  <TGI>
13.1

$$$$
>  <Compound>
Cc1cc(N(C)C)ccc1N=Nc1ccc2ncccc2c1

>  <Output Unit>
µM

>  <Qual>
>

>  <TGI>
100

$$$$
>  <Compound>
O=C(O)c1ccc(NCn2nc(-c3ccccc3O)oc2=S)cc1O

>  <Output Unit>
µM

>  <Qual>
=

>  <TGI>
99.1

$$$$
>  <Compound>
CCOC(=O)c1cc2c(OC)cc(OC)cc2oc1=O

>  <Output Unit>
µM

>  <Qual>
>

>  <TGI>
100

$$$$

* * *

system: HCT-15 colon; assay: NCI tumour cell line growth inhibition, 48 h
Reported Metric: TGI (µM)

>  <Compound>
S=c1sc2sc(=S)sc2s1

>  <Qual>
>

>  <Reported>
100

$$$$
>  <Compound>
[N-]=[N+]=NCC(=O)c1c[nH]c(=O)[nH]c1=O

>  <Qual>
>

>  <Reported>
100

$$$$
>  <Compound>
Oc1c(CCl)cc(Cl)cc1Cc1cc(Cl)cc(Cc2cc(Cl)cc(CCl)c2O)c1O

>  <Qual>
=

>  <Reported>
12

$$$$
>  <Compound>
Cc1cc2c(=O)cc(-c3ccc(Cl)cc3Cl)oc2c(C(=O)O)c1C

>  <Qual>
>

>  <Reported>
100

$$$$
>  <Compound>
OC1CCC(COC(c2ccccc2)(c2ccccc2)c2ccccc2)O1 (configuration not stated)

>  <Qual>
=

>  <Reported>
44.5

$$$$
>  <Compound>
Cc1ccc([N+](=O)[O-])cc1S(=O)(=O)Nc1ccc(C(=O)/C=C/c2ccccc2)cc1

>  <Qual>
=

>  <Reported>
48.7

$$$$
>  <Compound>
Cc1cc(C)c2c(=O)cc(-c3ccc(F)cc3)[nH]c2n1

>  <Qual>
>

>  <Reported>
100

$$$$
